targetOrTestSystem: Leukotriene B4 receptor (Cavia porcellus)
assayName: Inhibition of [3H]LTB4 binding to Leukotriene B4 receptor in the guinea pig spleen membranes.
measuredEndpoint: IC50 (nM)
One number for each entry, in nM.

Fill in IC50 for each of the 6 compounds listed.
1. O=C(O)CCCCCOc1cc(-c2ccccc2)cc(-c2ccccc2)n1
2. O=C(O)CCCCOc1cc(-c2ccccc2)cc(-c2ccccc2)n1
3. CC(CCCCOc1cc(-c2ccc3c(c2)OCO3)cc(-c2ccccc2Cl)n1)C(=O)O (centres undefined)
4. CC(C)(CCCCOc1cc(-c2ccc(N)cc2)cc(-c2ccccc2)n1)C(=O)O
5. O=C(O)CCCCCOc1cc(-c2ccccc2Cl)cc(-c2ccccc2)n1
6. CC(CCCCOc1cc(-c2ccccc2)cc(-c2ccccc2F)n1)C(=O)O (centres undefined)

### Response
1. 3
2. 50
3. 2
4. 6.6
5. 200
6. 4

Fill in IC50 for each of the 7 compounds listed.
1. O=C(O)CCCCCOc1cc(-c2ccc([N+](=O)[O-])cc2)cc(-c2ccccc2)n1
2. CC(CCCCOc1cc(-c2ccc3c(c2)OCO3)cc(-c2ccccc2)n1)C(=O)O (centres undefined)
3. COC(=O)CCCCCOc1cc(-c2ccccc2)cc(-c2ccccc2)n1
4. CC(C)(CCCCCCOc1cc(-c2ccccc2)cc(-c2ccccc2)n1)C(=O)O
5. O=C(O)CCCCCOc1cc(-c2ccc(NC(=O)C(F)(F)F)cc2)cc(-c2ccccc2)n1
6. CC(CCCCOc1cc(-c2ccccc2)cc(-c2ccccc2)n1)C(=O)O (centres undefined)
7. O=C(O)CCCCCCOc1cc(-c2ccccc2)cc(-c2ccccc2)n1

### Response
1. 50
2. 4.2
3. 40
4. 22
5. 150
6. 4
7. 25

### Prompt Return reported IC50. Input compound: `O=C(O)CCCCCOc1cc(-c2ccc3c(c2)OCO3)cc(-c2ccccc2)n1`
### Response 1
